Collected TGI values appear next to each entry.
tested on: CAKI-1 renal; experiment: NCI tumour cell line growth inhibition, 48 h

{"columns": ["Molecule", "Measurement qualifier", "TGI, µM"],
 "data": [
  ["O=C(CCC(=O)N/N=C/c1ccccc1O)N/N=C/c1ccccc1O", ">", 100],
  ["O=C(N/C(=C\\c1ccc(Br)cc1)c1nc2ccccc2s1)c1ccccc1", ">", 100],
  ["CCOC(=O)C1=C(NC(C)(C)C)OCC1=O", ">", 100],
  ["COc1ccc(OC)c(-c2cc(-c3ccccc3)nn2-c2ccc(S(N)(=O)=O)cc2)c1", "=", 32.8],
  ["O=c1oc2ccccc2cc1-c1nnc(-c2ccccc2)s1", ">", 100],
  ["Cc1c2ccnc(-c3ccccc3)c2cc2c1[nH]c1ccccc12", "=", 6.96],
  ["C=CC[Se]C(=O)Cc1c(C)n(C(=O)c2ccc(Cl)cc2)c2ccc(OC)cc12", "=", 3.05],
  ["C=C1C(=O)O[C@H]2[C@H]1[C@H](OC(=O)/C(C)=C\\C)C[C@]1(CO1)[C@@H]1[C@H](OC(C)=O)C=C(C)[C@]21O", "=", 36.8],
  ["Cc1c(C2Cc3ccccc3N2C(=O)/C=C\\C(=O)O)c2ccccc2n1C (stereo not given)", "=", 78.7],
  ["CN1CC2=C(NC(=S)NC2c2ccc(Cl)cc2)/C(=C/c2ccc(Cl)cc2)C1 (stereo not given)", "=", 32.4]
]}
